tested on: 134 cancer cell lines; test: Cell viability assay (ATPlite, 72 hours), IC50 on cancer cell line panel; details: Homo sapiens, A704, read-out: IC50 in cell proliferation assay
observable: IC50 (µM)
Please respond with the number in µM and leave the unit unwritten.

(Q) What value of IC50 has been recorded for this entry: `C[C@@H](Oc1cc(-c2cnn(C3CCNCC3)c2)cnc1N)c1c(Cl)ccc(F)c1Cl`
(A) 4.45

---

Endpoint: IC50. System: 134 cancer cell lines. Items follow.
Please respond with the number in nM and leave the unit unwritten.

(Q) Item `Cn1cnc2c(F)c(Nc3ccc(Br)cc3Cl)c(C(=O)NOCCO)cc21` with 134 cancer cell lines - IC50?
(A) 99

(Q) Item `COc1cc2ncnc(Nc3ccc(F)c(Cl)c3)c2cc1NC(=O)/C=C/CN1CCCCC1` with 134 cancer cell lines - IC50?
(A) 18

(Q) Item `CC(C)(C)c1nc(-c2cccc(NS(=O)(=O)c3c(F)cccc3F)c2F)c(-c2ccnc(N)n2)s1` with 134 cancer cell lines - IC50?
(A) 1080

(Q) Item `COC(=O)N[C@@H](C)CNc1nccc(-c2cn(C(C)C)nc2-c2cc(Cl)cc(NS(C)(=O)=O)c2F)n1` with 134 cancer cell lines - IC50?
(A) 592

(Q) Item `Cc1nc(NC(=O)N2CCC[C@H]2C(N)=O)sc1-c1ccnc(C(C)(C)C(F)(F)F)c1` with 134 cancer cell lines - IC50?
(A) 534

Just for reference, paper PMC9516332 is where these values come from.
